# Target or system: human MC4R (Homo sapiens, UniProt P32245)
# Construct: host or cells: HEK-293 cells stably expressing the GScAMP22F split-luciferase cAMP sensor and hMC4R, G418 selection
# Sequence (P32245 whole entry): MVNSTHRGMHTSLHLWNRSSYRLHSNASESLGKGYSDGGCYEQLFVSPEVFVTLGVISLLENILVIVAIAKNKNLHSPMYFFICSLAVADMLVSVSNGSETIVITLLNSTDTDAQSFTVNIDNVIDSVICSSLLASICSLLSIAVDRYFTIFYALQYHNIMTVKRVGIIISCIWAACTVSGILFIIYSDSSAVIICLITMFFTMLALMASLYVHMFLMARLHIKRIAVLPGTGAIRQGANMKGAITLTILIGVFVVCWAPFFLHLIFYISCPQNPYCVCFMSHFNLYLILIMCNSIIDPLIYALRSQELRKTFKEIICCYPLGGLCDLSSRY
# Test name: split-luciferase cAMP sensor assay, agonist mode (measurement window 1), hMC4R
# Type: cell-based
# Setup conditions: % maximal activation, agonist mode; read-out: MC4R cAMP % max activation
Positions of bridges follow the written chain, without caps; N, C: chain ends. Non-standard residues stand in square brackets, D forms with d. Residues, ends and D or L forms follow the SMILES beside them. hCit = NC(=O)NCCCC[C@H](N)C(=O)O; Nle = CCCC[C@H](N)C(=O)O; Aib = CC(C)(N)C(=O)O
Outcome measure: Emax (%)
Hi! Could you send only the number? It should be in %, unit omitted.

Below, 2 molecules whose answers are already recorded.
CC(=O)N[C@@H](CCCNC(=N)N)C(=O)N[C@H]1CSSC[C@@H](C(N)=O)NC(=O)[C@H](Cc2c[nH]c3ccccc23)NC(=O)[C@H](CCCNC(=N)N)NC(=O)[C@@H](Cc2ccccc2)NC(=O)[C@H](CCCNC(N)=O)NC(=O)C(C)(C)NC1=O: 93
COc1ccc(C[C@H]2NC(=O)[C@H](CCCNC(=N)N)NC(=O)C(C)(C)NC(=O)[C@@H](NC(=O)[C@H](CCCNC(=N)N)NC(C)=O)CSSC[C@@H](C(N)=O)NC(=O)[C@H](Cc3ccccc3)NC(=O)[C@H](CCCNC(=N)N)NC2=O)cc1 [CTX-1298] (Ac-RC[Aib]R[dY](Me)RFC-NH2; disulfide 2-8 (inferred)): 93

Now for the molecule whose Emax we want.
CCCC[C@H](NC(=O)[C@H](CCCNC(=N)N)NC(C)=O)C(=O)N[C@H]1CSSC[C@@H](C(N)=O)NC(=O)[C@H](Cc2c[nH]c3ccccc23)NC(=O)[C@H](CCCNC(=N)N)NC(=O)[C@@H](Cc2ccccc2)NC(=O)[C@H](CCCCNC(N)=O)NC1=O [CTX-1618] (Ac-R[Nle]C[hCit][dF]RWC-NH2; disulfide 3-8 (inferred)) yielded Emax of 94

---

# Target or system: human MC4R (Homo sapiens, UniProt P32245)
# Construct: host or cells: HEK-293 cells stably expressing the GScAMP22F split-luciferase cAMP sensor and hMC4R, G418 selection
# Test name: split-luciferase cAMP sensor assay, agonist mode (measurement window 1), hMC4R
# Type: cell-based
Positions of bridges follow the written chain, without caps; N, C: chain ends. Non-standard residues stand in square brackets, D forms with d. Residues, ends and D or L forms follow the SMILES beside them. dPhe(4-Br) = N[C@H](Cc1ccc(Br)cc1)C(=O)O; d(αMeF) = C[C@@](N)(Cc1ccccc1)C(=O)O
Form field: MC4R selectivity vs MC3R (one value per entry).
Give a plain numeric answer without units written out.

See these solved cases before continuing.
CC(=O)N[C@@H](CCCNC(=N)N)C(=O)N[C@H]1CSSC[C@@H](C(N)=O)NC(=O)[C@@H](Cc2c[nH]c3ccccc23)NC(=O)[C@H](CCCNC(=N)N)NC(=O)[C@@](C)(Cc2ccccc2)NC(=O)[C@H](CCCNC(=N)N)NC(=O)[C@@H](C)NC1=O [CTX-1279] (Ac-RC[dA]R[d(αMeF)]R[dW]C-NH2; disulfide 2-8): 0.61
CC(=O)N[C@@H](CCCNC(=N)N)C(=O)N[C@H]1CSSC[C@@H](C(N)=O)NC(=O)[C@@H](Cc2c[nH]c3ccccc23)NC(=O)[C@H](CCCNC(=N)N)NC(=O)[C@@H](Cc2ccc(Br)cc2)NC(=O)[C@H](CCCNC(=N)N)NC(=O)[C@@H](C)NC1=O [CTX-1214] (Ac-RC[dA]R[dPhe(4-Br)]R[dW]C-NH2; disulfide 2-8 (inferred)): 0.2
CC(=O)N[C@@H](CCCNC(=N)N)C(=O)N[C@H]1CSSC[C@@H](C(=O)N[C@@H](CCCNC(=N)N)C(=O)N[C@@H](Cc2ccccc2)C(N)=O)NC(=O)[C@@H](Cc2c[nH]c3ccccc23)NC(=O)[C@H](CCCNC(=N)N)NC(=O)[C@@H](Cc2ccc(Br)cc2)NC(=O)[C@H](CCCNC(=N)N)NC(=O)[C@@H](C)NC1=O [CTX-1220] (Ac-RC[dA]R[dPhe(4-Br)]R[dW]CRF-NH2; disulfide 2-8 (inferred)): 3.82
CC(=O)N[C@@H](CCCNC(=N)N)C(=O)N[C@H]1CSSC[C@@H](C(=O)N[C@@H](CCCCN)C(N)=O)NC(=O)[C@@H](Cc2c[nH]c3ccccc23)NC(=O)[C@H](CCCNC(=N)N)NC(=O)[C@@H](Cc2ccc(Br)cc2)NC(=O)[C@H](CCCNC(=N)N)NC(=O)[C@@H](C)NC1=O [CTX-1218] (Ac-RC[dA]R[dPhe(4-Br)]R[dW]CK-NH2; disulfide 2-8): 1.85

Entry CC(=O)N[C@@H](CCCNC(=N)N)C(=O)N[C@H]1CSSC[C@@H](C(N)=O)NC(=O)[C@@H](Cc2c[nH]c3ccccc23)NC(=O)[C@H](CCCNC(=N)N)NC(=O)[C@@H](Cc2ccc(Br)cc2)NC(=O)[C@@H](CCCNC(=N)N)NC(=O)[C@@H](C)NC1=O [CTX-1250] (Ac-RC[dA][dR][dPhe(4-Br)]R[dW]C-NH2; disulfide 2-8 (inferred)) , MC4R selectivity vs MC3R reported as 11

// recorded MC4R selectivity vs MC3R for CC(=O)N[C@@H](CCCNC(=N)N)C(=O)N[C@H]1CSSC[C@@H](C(N)=O)NC(=O)[C@@H](Cc2c[nH]c3ccccc23)NC(=O)[C@H](CCCNC(=N)N)NC(=O)[C@@H](Cc2ccc(Br)cc2)NC(=O)[C@@H]2CCCN2C(=O)[C@@H](C)NC1=O [CTX-1249] (Ac-RC[dA]P[dPhe(4-Br)]R[dW]C-NH2; disulfide 2-8) : 0.45
